The measurements presented in this section are drawn from patent US20150177202A1.

# Tested on: olfactory system
# experiment: WUTC Odor Threshold Test (yes-no detection of odorant dilutions in water, signal detection analysis)
# Format: in vivo, human
# condition: combined trials of all 33 subjects; logistic regression, p=0.5
assay.metric: log10 Threshold (log10 of the value in ppm)
Log10 applied to Threshold; unit prior to transform: ppm.

// solved cases for log10 Threshold follow
molecule | recorded.value
CC1=CCC2CC1C2(C)C [Pinene, L-α-pinene] | 2.44
COc1cc(C=O)ccc1O [Vanillin, vanillin] | 2.05

Prompt: Query: log10 Threshold; subject: Cc1ccc(O)cc1 [para-cresol]
Completion: 0.02

Prompt: Now try CCO [Ethanol, ethanol] .
Completion: 2.42

Prompt: Now try CC(=O)OCCC(C)C [Isoamyl Acetate, isoamyl acetate] .
Completion: 1.58

====

# Test system: olfactory system
# experiment: WUTC Odor Threshold Test (yes-no detection of odorant dilutions in water, signal detection analysis)
# Format: in vivo, human
# condition: concentration 3, combined participant trials
Rule: Mean d′ under 0.08 gives label 0, otherwise label 1.

Below, 4 compounds whose answers are already recorded.
compound | system.name | label.value
CC1=CCC2CC1C2(C)C [Pinene, L-α-pinene] | olfactory system | label 1
CC(=O)OCCC(C)C [Isoamyl Acetate, isoamyl acetate] | olfactory system | label 0
Cc1ccc(O)cc1 [para-cresol] | olfactory system | label 1
COc1cc(C=O)ccc1O [Vanillin, vanillin] | olfactory system | label 0

Continue with the next compound.
Prompt: Mean d′ >= 0.08 for CCO [Ethanol, ethanol] ?
Completion: label 0

====

Some compounds, each annotated with its measured Mean A′.
# Test system: olfactory system
# experiment: WUTC Odor Threshold Test (yes-no detection of odorant dilutions in water, signal detection analysis)
# Type: in vivo, human
# condition: concentration 7, combined participant trials
# Text: The present study involved the creation and study of a new test of olfactory ability, deemed the Wheeler University of Tennessee, Chattanooga (WUTC) Odor Threshold Test. This test was developed building upon the methodology behind signal detection theory as it allowed for multiple measures of olfactory ability to be calculated from a single test. These measures are sensitivity, response-bias, and threshold. […]
No unit in the answer, only the number.

// solved cases for Mean A′ follow
compound | Mean A′
CC(=O)OCCC(C)C [Isoamyl Acetate, isoamyl acetate] | 0.796
COc1cc(C=O)ccc1O | 0.781

Prompt: Query: Mean A′; subject: Cc1ccc(O)cc1
Completion: 0.847

Prompt: Now try CCO .
Completion: 0.668

Prompt: Now try CC1=CCC2CC1C2(C)C (centres unmarked) .
Completion: 0.847

====

# Test system: olfactory system
# experiment: WUTC Odor Threshold Test (yes-no detection of odorant dilutions in water, signal detection analysis)
# Type: in vivo, human
# condition: concentration 2, combined participant trials
assay.metric: Mean A′
No unit in the answer, only the number.

// solved cases for Mean A′ follow
molecule | recorded.value
CC(=O)OCCC(C)C [Isoamyl Acetate, isoamyl acetate] | 0.424
COc1cc(C=O)ccc1O | 0.478
CC1=CCC2CC1C2(C)C (centres unmarked) | 0.757
Cc1ccc(O)cc1 | 0.561

# input for lookup
Prompt: Query: Mean A′; subject: CCO
Completion: 0.716

====

# Test system: olfactory system
# experiment: WUTC Odor Threshold Test (yes-no detection of odorant dilutions in water, signal detection analysis)
# Assay type: in vivo, human
# condition: concentration 7, combined participant trials
assay.metric: Mean d′
No unit in the answer, only the number.

// solved cases for Mean d′ follow
compound | assay.metric | recorded.value
CC1=CCC2CC1C2(C)C (centres unmarked) | Mean d′ | 1.458
CC(=O)OCCC(C)C [Isoamyl Acetate, isoamyl acetate] | Mean d′ | 1.11
Cc1ccc(O)cc1 | Mean d′ | 1.458

Prompt: Query: Mean d′; subject: COc1cc(C=O)ccc1O
Completion: 1.024

Prompt: Now try CCO .
Completion: 0.513
